Hey, just so you know, these numbers are from ChEMBL document CHEMBL1201862.

System: K562
protocol-description: NCI tumour cell line growth inhibition, 48 h
The source made the active and inactive calls. Cut-off read from the data, not from the text of the source: active = GI50 up to about 1.1 µM and inactive = higher. Square brackets hold non-standard residues; d marks the D form. Peptide text beside a SMILES is read from it. * marks the point of attachment. X26 = COC1=CC(=O)N(C(=O)[C@@H](O*)C(C)C)[C@H]1Cc1ccccc1; NMeV = CN[C@H](C(=O)O)C(C)C; Hexanoyl = CCCCCC(=O)*
Possible outcomes: active, inactive

# compound, cat
measured = [
    ("C/C(=N/NC(=S)N(C)CCc1ccccn1)c1cnccn1", "active"),
    ("O=c1[nH]c2ccc([N+](=O)[O-])cc2nc1/C(=N/Nc1ccccc1)C(O)c1ccco1 (stereo not given)", "inactive"),
    ("CN(C)S(=O)(=O)/N=C/c1cccc(/C=N/S(=O)(=O)N(C)C)c1", "inactive"),
    ("CCCN(CCC)CCc1cc(C(C)=O)n(S(=O)(=O)c2ccc(C)cc2)c1", "inactive"),
    ("CC(O)CC(O)(C(F)(F)F)C(F)(F)F (stereo not given)", "inactive"),
    ("CCCCCC(=O)N[C@H](C(=O)N[C@H](C(=O)N(C)[C@H](C(=O)N1CCC[C@H]1C(=O)N1CCC[C@H]1C(=O)O[C@H](C(=O)N1C(=O)C=C(OC)[C@@H]1Cc1ccccc1)C(C)C)C(C)C)C(C)C)C(C)C (Hexanoyl-VV[NMeV]PP-X26)", "inactive"),
    ("CC(C)(CC#N)c1cc(CC(C)(C)c2cc(CC(C)(C)c3cc(C(C)(C)C4(C)OCCO4)no3)no2)no1", "inactive"),
    ("COc1ccc(-c2c(-c3ccc(OC)cc3)n3c(=O)n(C)c(=O)n23)cc1", "inactive"),
    ("COc1ccccc1/N=C(\\N)N/N=C/c1c[nH]c2ccccc12", "inactive"),
    ("O=c1c2ccccc2sc2ccccc12", "inactive"),
    ("CCOC(=O)NN(C(=O)OCC)C(=C(c1ccccc1)N1CCOCC1)N(NC(=O)OCC)C(=O)OCC", "inactive"),
    ("CC1CCOc2ccc(cc2)/C=N\\c2ccc(cc2)CCc2ccc(cc2)/N=C\\c2ccc(cc2)OCC1", "inactive"),
    ("CCOP(=O)(O)C(Nc1ccc(/N=N/c2ccccc2)cc1)c1cccc(C(Nc2ccc(/N=N/c3ccccc3)cc2)P(=O)(O)OCC)c1 (stereo not given)", "inactive"),
    ("CC(=O)OCC1OC(OC(C)=O)C(Nc2ncc(-c3ccc(C)cc3)s2)C(OC(C)=O)C1OC(C)=O (stereo not given)", "inactive"),
    ("CCOC(=O)/C=C(\\C)c1ccc(C)cc1C", "inactive"),
    ("CC1=N[C@@](C)(C2CC3C=CC2C3=O)COC1=O (stereo not given in full)", "inactive"),
    ("C=C1C(=O)OC2C1CC[C@H](C)C13OC(=O)CC1[C@@]23C (stereo not given in full)", "inactive"),
    ("Cc1ccc(Nc2ccc(Nc3ccc(C)cc3)c3c2C(=O)c2c(O)ccc(O)c2C3=O)cc1", "inactive"),
    ("COc1ccc(CC2=NCCc3cc(OC)c(OC)cc32)cc1Br", "inactive"),
    ("CNC(=O)OCc1nc(SC)n(C)c1CO", "inactive"),
]

* * *

Tested on: NCI-H226
protocol-description: NCI tumour cell line growth inhibition, 48 h
The source made the active and inactive calls. Rule as the data show it: active = GI50 up to about 1.1 µM and inactive = higher.
Possible outcomes: yes = active, no = inactive

# molecule, cat
records = [
    ("O=C(/C=C/c1cccc(Br)c1)N1CCN(CCOC(c2ccccc2)c2ccccc2)CC1", "no"),
    ("O=S(=O)(CC1=NC2C=CC=CC2N=C1)NCc1ccccc1 (stereo unspecified)", "no"),
    ("CC(C)(C)N1C=[N+](C(C)(C)C)CC1", "no"),
    ("COc1ccc(OC)c(NC(=O)c2c(Cl)c(Cl)c(Cl)c(Cl)c2-c2nc3ccccc3[nH]2)c1", "no"),
    ("COc1c(C(=O)/C(=N/Nc2ccccc2)C(C)=O)c(O)c(OC)c2occc12", "no"),
    ("COc1ccc2c(C)cc(N/N=C/c3ccc(C)s3)nc2c1", "no"),
    ("COc1cc2nc(-c3cccs3)nc(N3C(c4cc(OC)c(OC)c(OC)c4)=NNC(=O)c4ccccc43)c2cc1OC", "no"),
    ("O=C(O)CN(c1ccc(Cl)cc1)S(=O)(=O)c1ccccc1", "no"),
    ("O=C(O)CN1CCN2CCCCCCCCN(CC1)CCN(CC(=O)O)CC2", "no"),
    ("COc1cc(C(=O)C(CO)Oc2ccccc2OC)ccc1O (stereo unspecified)", "no"),
    ("C[C@H]1O[C@@H](C(C)(C)C)OC(=O)[C@@H]1C(OC(=O)c1ccccc1)c1cccc2ccccc12 (stereo partly specified)", "no"),
    ("COc1ccc(C2c3cc4c(cc3OC(Nc3ccccc3)C2C)OCO4)cc1 (stereo unspecified)", "no"),
    ("C/C(=N\\c1c2ccccc2nc2ccccc12)N(C)C", "no"),
    ("O=C(NNCc1ccc(Cl)cc1)Nc1cccc2ccccc12", "no"),
    ("C=C1C(=O)OC2C1CC[C@H](C)C13OC(=O)CC1[C@@]23C (stereo partly specified)", "no"),
    ("Cc1cnc2[nH]c(-c3ccccc3)cc(=O)c2c1", "yes"),
    ("COc1ccc(CCN2CCOCC2)cc1", "no"),
    ("C=C[C@H]1CN2CCc3c([nH]c4cc(O)ccc34)[C@@H]2C[C@@H]1C[C@H]1c2[nH]c3ccccc3c2CCN1C", "no"),
    ("COc1cc2c(c(OC)c1OC)C(=O)[C@@H](O)[C@H]2NC(N)=O", "no"),
    ("Cn1c(=O)nc2n(-c3ccc(Cl)c(C(F)(F)F)c3)c3ccccc3nc-2c1=O", "no"),
    ("COc1cc(S(=O)(=O)N/N=C/c2cc(Br)c(O)c(OC)c2)c(OC)cc1NC(C)=O", "no"),
]
